All values here come from patent US20230183354A1.

# Assayed system: T1, human CD103 (integrin Alpha-E) / human integrin Beta-7 heterodimer on cells (human, UniProt P38570 19-1179; P26010 20-798)
# T1 construct: the assay field tells which cells; also called hCD103/hBeta7; CHO.K1-hCD103/hBeta7
# T1 sequence (P38570 19-1179 limits assumed, chain 1 of 2): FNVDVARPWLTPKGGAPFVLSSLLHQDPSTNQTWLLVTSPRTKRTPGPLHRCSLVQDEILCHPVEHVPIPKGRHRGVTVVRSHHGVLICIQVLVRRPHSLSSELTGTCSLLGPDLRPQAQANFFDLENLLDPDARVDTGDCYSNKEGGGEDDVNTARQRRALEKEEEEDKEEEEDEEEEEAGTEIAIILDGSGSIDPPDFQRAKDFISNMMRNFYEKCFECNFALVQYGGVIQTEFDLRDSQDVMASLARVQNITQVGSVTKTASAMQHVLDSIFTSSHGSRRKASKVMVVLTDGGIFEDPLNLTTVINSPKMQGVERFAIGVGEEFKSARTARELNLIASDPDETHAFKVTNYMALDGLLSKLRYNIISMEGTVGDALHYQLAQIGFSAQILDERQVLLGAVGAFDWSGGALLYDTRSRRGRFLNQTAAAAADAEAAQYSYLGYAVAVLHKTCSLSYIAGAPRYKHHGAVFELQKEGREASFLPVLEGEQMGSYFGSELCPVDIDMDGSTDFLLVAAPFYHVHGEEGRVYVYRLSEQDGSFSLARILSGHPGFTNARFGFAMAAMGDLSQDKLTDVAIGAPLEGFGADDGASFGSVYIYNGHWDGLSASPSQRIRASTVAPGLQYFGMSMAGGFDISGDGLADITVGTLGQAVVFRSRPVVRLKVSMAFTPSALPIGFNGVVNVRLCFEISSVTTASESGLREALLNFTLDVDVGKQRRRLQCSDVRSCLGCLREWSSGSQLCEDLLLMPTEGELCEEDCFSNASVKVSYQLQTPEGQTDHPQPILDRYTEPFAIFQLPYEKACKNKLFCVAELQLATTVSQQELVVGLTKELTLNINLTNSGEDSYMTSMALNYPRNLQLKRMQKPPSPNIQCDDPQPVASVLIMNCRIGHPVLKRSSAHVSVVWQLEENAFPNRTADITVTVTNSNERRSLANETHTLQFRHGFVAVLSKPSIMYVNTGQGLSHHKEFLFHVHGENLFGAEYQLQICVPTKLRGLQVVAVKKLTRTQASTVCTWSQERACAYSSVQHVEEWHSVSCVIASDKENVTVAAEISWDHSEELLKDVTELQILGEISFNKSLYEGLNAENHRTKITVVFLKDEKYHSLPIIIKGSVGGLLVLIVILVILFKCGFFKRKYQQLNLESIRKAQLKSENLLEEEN
# T1 sequence (P26010 20-798 limits assumed, chain 2 of 2): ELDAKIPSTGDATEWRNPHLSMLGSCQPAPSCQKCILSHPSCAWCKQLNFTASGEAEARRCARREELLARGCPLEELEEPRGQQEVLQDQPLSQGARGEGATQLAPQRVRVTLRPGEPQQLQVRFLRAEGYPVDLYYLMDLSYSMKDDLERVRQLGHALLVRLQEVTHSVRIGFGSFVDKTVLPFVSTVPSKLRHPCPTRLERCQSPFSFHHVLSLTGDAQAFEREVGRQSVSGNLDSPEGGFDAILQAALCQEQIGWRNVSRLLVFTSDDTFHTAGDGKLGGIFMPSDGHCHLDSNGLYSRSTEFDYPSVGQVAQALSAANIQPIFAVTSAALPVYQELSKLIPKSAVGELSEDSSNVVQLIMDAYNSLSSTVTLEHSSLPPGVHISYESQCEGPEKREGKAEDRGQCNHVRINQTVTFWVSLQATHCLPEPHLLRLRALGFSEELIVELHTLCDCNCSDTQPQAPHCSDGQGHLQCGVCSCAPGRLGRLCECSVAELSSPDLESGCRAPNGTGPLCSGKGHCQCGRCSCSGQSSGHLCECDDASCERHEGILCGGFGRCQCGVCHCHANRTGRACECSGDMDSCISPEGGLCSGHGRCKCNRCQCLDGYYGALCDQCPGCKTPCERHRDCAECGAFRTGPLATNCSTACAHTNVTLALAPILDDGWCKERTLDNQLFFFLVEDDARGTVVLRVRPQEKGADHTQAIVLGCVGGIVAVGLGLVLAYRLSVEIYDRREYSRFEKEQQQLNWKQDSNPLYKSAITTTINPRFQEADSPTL
# Test description: flow cytometry competition on CD103+CD8+ T cells; pre-incubation with unlabeled BERACT; table n=2
Attribute measured: % binding of the fluorescently labeled mAb (IgG pre-incubation = 100) (%)

>  <Binder>
hCD103.06A (antibody, mouse IgG1, V domains shown, also called clone 06A; hCD103.06 mAb) VH: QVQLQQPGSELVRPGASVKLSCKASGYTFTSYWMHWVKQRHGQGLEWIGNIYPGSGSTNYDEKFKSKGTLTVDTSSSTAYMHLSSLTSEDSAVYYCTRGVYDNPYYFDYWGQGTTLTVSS VL: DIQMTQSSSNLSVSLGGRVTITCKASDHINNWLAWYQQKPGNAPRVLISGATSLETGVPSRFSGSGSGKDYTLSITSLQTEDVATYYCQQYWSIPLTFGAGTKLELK

>  <Quantity unit>
%

>  <Numeric readout>
109

$$$$
